test system: HeLa Kyoto; assay: thermal stability score vs G1/S (z-score of summed log2 fold changes over temperatures); higher = more thermally stable than in G1/S; conditions: cell cycle stage: early G1 (4.5 h after nocodazole release)
attributeMeasured: thermal stability score
No unit in the answer, only the number.

Example results:
# sequenceRecord, thermal stability score
measured = [
    ("MARCERLRGAALRDVLGRAQGVLFDCDGVLWNGERAVPGAPELLERLARAGKAALFVSNNSRRARPELALRFARLGFGGLRAEQLFSSALCAARLLRQRLPGPPDAPGAVFVLGGEGLRAELRAAGLRLAGDPSAGDGAAPRVRAVLVGYDEHFSFAKLREACAHLRDPECLLVATDRDPWHPLSDGSRTPGTGSLAAAVETASGRQALVVGKPSPYMFECITENFSIDPARTLMVGDRLETDILFGHRCGMTTVLTLTGVSRLEEAQAYLAAGQHDLVPHYYVESIADLTEGLED [PDXP]", -2.14),
    ("MADEIAKAQVARPGGDTIFGKIIRKEIPAKIIFEDDRCLAFHDISPQAPTHFLVIPKKHISQISVAEDDDESLLGHLMIVGKKCAADLGLNKGYRMVVNEGSDGGQSVYHVHLHVLGGRQMHWPPG [HINT1]", -5.39),
]

--- query ---
// query Provide thermal stability score value for the following sequence: MAASRLELNLVRLLSRCEAMAAEKRDPDEWRLEKYVGALEDMLQALKVHASKPASEVINEYSWKVDFLKGMLQAEKLTSSSEKALANQFLAPGRVPTTARERVPATKTVHLQSRARYTSEMRSELLGTDSAEPEMDVRKRTGVAGSQPVSEKQLAAELDLVLQRHQNLQEKLAEEMLGLARSLKTNTLAAQSVIKKDNQTLSHSLKMADQNLEKLKTESERLEQHTQKSVNWLLWAMLIIVCFIFISMILFIRIMPKLK [USE1]
// result 0.334

---

The following sequences are shown together with reported solubility in G1/S (log2) values.
tested on: HeLa Kyoto; assay: solubility in G1/S (NP-40 vs SDS abundance) (log2 ratio); higher = more soluble; conditions: cell cycle stage: G1/S
No unit in the answer, only the number.

# sequenceRecord, solubility in G1/S (log2)
data = [
    ("MSGGGTETPVGCEAAPGGGSKKRDSLGTAGSAHLIIKDLGEIHSRLLDHRPVIQGETRYFVKEFEEKRGLREMRVLENLKNMIHETNEHTLPKCRDTMRDSLSQVLQRLQAANDSVCRLQQREQERKKIHSDHLVASEKQHMLQWDNFMKEQPNKRAEVDEEHRKAMERLKEQYAEMEKDLAKFSTF [BLOC1S5]", 0.438),
]

// query Provide solubility in G1/S (log2) value for the following sequence: MSRPVRNRKVVDYSQFQESDDADEDYGRDSGPPTKKIRSSPREAKNKRRSGKNSQEDSEDSEDKDVKTKKDDSHSAEDSEDEKEDHKNVRQQRQAASKAASKQREMLMEDVGSEEEQEEEDEAPFQEKDSGSDEDFLMEDDDDSDYGSSKKKNKKMVKKSKPERKEKKMPKPRLKATVTPSPVKGKGKVGRPTASKASKEKTPSPKEEDEEPESPPEKKTSTSPPPEKSGDEGSEDEAPSGED [NUCKS1]
// result 0.444

---

test system: HeLa Kyoto; experiment: solubility in G1/S (NP-40 vs SDS abundance) (log2 ratio); higher = more soluble; settings: cell cycle stage: G1/S
The following sequences are shown together with reported solubility in G1/S (log2) values.

# sequenceRecord, solubility in G1/S (log2)
measured = [
    ("MADGDSGSERGGGGGPCGFQPASRGGGEQETQELASKRLDIQNKRFYLDVKQNAKGRFLKIAEVGAGGSKSRLTLSMAVAAEFRDSLGDFIEHYAQLGPSSPEQLAAGAEEGGGPRRALKSEFLVRENRKYYLDLKENQRGRFLRIRQTVNRGGGGFGAGPGPGGLQSGQTIALPAQGLIEFRDALAKLIDDYGGEDDELAGGPGGGAGGPGGGLYGELPEGTSITVDSKRFFFDVGCNKYGVFLRVSEVKPSYRNAITVPFKAWGKFGGAFCRYADEMKEIQERQRDKLYERRGGGSGGGEESEGEEVDED [PURB]", 0.381),
]

--- query ---
// query Lab note: record solubility in G1/S (log2) of MAYAYLFKYIIIGDTGVGKSCLLLQFTDKRFQPVHDLTIGVEFGARMITIDGKQIKLQIWDTAGQESFRSITRSYYRGAAGALLVYDITRRDTFNHLTTWLEDARQHSNSNMVIMLIGNKSDLESRREVKKEEGEAFAREHGLIFMETSAKTASNVEEAFINTAKEIYEKIQEGVFDINNEANGIKIGPQHAATNATHAGNQGGQQAGGGCC [RAB2A] tested on HeLa Kyoto.
// result -0.194

---

The following sequences are shown together with reported melting temperature values.
tested on: HeLa Kyoto; experiment: melting temperature (median over replicates), in situ; higher = more thermally stable; conditions: cell cycle stage: mitosis
Respond numerically; units are °C and should not be typed.

# sequenceRecord, assayTarget, melting temperature / °C
records = [
    ("MEEGGNLGGLIKMVHLLVLSGAWGMQMWVTFVSGFLLFRSLPRHTFGLVQSKLFPFYFHISMGCAFINLCILASQHAWAQLTFWEASQLYLLFLSLTLATVNARWLEPRTTAAMWALQTVEKERGLGGEVPGSHQGPDPYRQLREKDPKYSALRQNFFRYHGLSSLCNLGCVLSNGLCLAGLALEIRSL [TMEM205]", "HeLa Kyoto", 55.9),
    ("MPKKKTGARKKAENRREREKQLRASRSTIDLAKHPCNASMECDKCQRRQKNRAFCYFCNSVQKLPICAQCGKTKCMMKSSDCVIKHAGVYSTGLAMVGAICDFCEAWVCHGRKCLSTHACACPLTDAECVECERGVWDHGGRIFSCSFCHNFLCEDDQFEHQASCQVLEAETFKCVSCNRLGQHSCLRCKACFCDDHTRSKVFKQEKGKQPPCPKCGHETQETKDLSMSTRSLKFGRQTGGEEGDGASGYDAYWKNLSSDKYGDTSYHDEEEDEYEAEDDEEEEDEGRKDSDTESSDLFTNLNLGRTYASGYAHYEEQEN [ZNF330]", "HeLa Kyoto", 50.9),
]

// query Provide melting temperature value for the following sequence: MSAKPEVSLVREASRQIVAGGSAGLVEICLMHPLDVVKTRFQIQRCATDPNSYKSLVDSFRMIFQMEGLFGFYKGILPPILAETPKRAVKFFTFEQYKKLLGYVSLSPALTFAIAGLGSGLTEAIVVNPFEVVKVGLQANRNTFAEQPSTVGYARQIIKKEGWGLQGLNKGLTATLGRHGVFNMVYFGFYYNVKNMIPVNKDPILEFWRKFGIGLLSGTIASVINIPFDVAKSRIQGPQPVPGEIKYRTCFKTMATVYQEEGILALYKGLLPKIMRLGPGGAVMLLVYEYTYSWLQENW [SLC25A21]
// result 55.7

// query Provide melting temperature value for the following sequence: MKPSGEDQAALAAGPWEECFQAAVQLALRAGQIIRKALTEEKRVSTKTSAADLVTETDHLVEDLIISELRERFPSHRFIAEEAAASGAKCVLTHSPTWIIDPIDGTCNFVHRFPTVAVSIGFAVRQELEFGVIYHCTEERLYTGRRGRGAFCNGQRLRVSGETDLSKALVLTEIGPKRDPATLKLFLSNMERLLHAKAHGVRVIGSSTLALCHLASGAADAYYQFGLHCWDLAAATVIIREAGGIVIDTSGGPLDLMACRVVAASTREMAMLIAQALQTINYGRDDEK [IMPA2]
// result 60.1

// query Provide melting temperature value for the following sequence: MATTAAPAGGARNGAGPEWGGFEENIQGGGSAVIDMENMDDTSGSSFEDMGELHQRLREEEVDADAADAAAAEEEDGEFLGMKGFKGQLSRQVADQMWQAGKRQASRAFSLYANIDILRPYFDVEPAQVRSRLLESMIPIKMVNFPQKIAGELYGPLMLVFTLVAILLHGMKTSDTIIREGTLMGTAIGTCFGYWLGVSSFIYFLAYLCNAQITMLQMLALLGYGLFGHCIVLFITYNIHLHALFYLFWLLVGGLSTLRMVAVLVSRTVGPTQRLLLCGTLAALHMLFLLYLHFAYHKVVEGILDTLEGPNIPPIQRVPRDIPAMLPAARLPTTVLNATAKAVAVTLQSH [YIPF3]
// result 55.7

// query Provide melting temperature value for the following sequence: METVISSDSSPAVENEHPQETPESNNSVYTSFMKSHRCYDLIPTSSKLVVFDTSLQVKKAFFALVTNGVRAAPLWDSKKQSFVGMLTITDFINILHRYYKSALVQIYELEEHKIETWREVYLQDSFKPLVCISPNASLFDAVSSLIRNKIHRLPVIDPESGNTLYILTHKRILKFLKLFITEFPKPEFMSKSLEELQIGTYANIAMVRTTTPVYVALGIFVQHRVSALPVVDEKGRVVDIYSKFDVINLAAEKTYNNLDVSVTKALQHRSHYFEGVLKCYLHETLETIINRLVEAEVHRLVVVDENDVVKGIVSLSDILQALVLTGGEKKP [PRKAG1]
// result 51.2

// query Provide melting temperature value for the following sequence: MAAPGPALCLFDVDGTLTAPRQKITKEMDDFLQKLRQKIKIGVVGGSDFEKVQEQLGNDVVEKYDYVFPENGLVAYKDGKLLCRQNIQSHLGEALIQDLINYCLSYIAKIKLPKKRGTFIEFRNGMLNVSPIGRSCSQEERIEFYELDKKENIRQKFVADLRKEFAGKGLTFSIGGQISFDVFPDGWDKRYCLRHVENDGYKTIYFFGDKTMPGGNDHEIFTDPRTMGYSVTAPEDTRRICELLFS [PMM2]
// result 53.3

// query Provide melting temperature value for the following sequence: MARYEEVSVSGFEEFHRAVEQHNGKTIFAYFTGSKDAGGKSWCPDCVQAEPVVREGLKHISEGCVFIYCQVGEKPYWKDPNNDFRKNLKVTAVPTLLKYGTPQKLVESECLQANLVEMLFSED [TXNDC17]
// result 51.6

// query Provide melting temperature value for the following sequence: MATASPAADGGRGRPWEGGLVSWPPAPPLTLPWTWMGPSWGQHPGHWGFPALTEPSASPAAGLGIFEVRRVLDASGCSMLAPLQTGAARFSSYLLSRARKVLGSHLFSPCGVPEFCSISTRKLAAHGFGASMAAMVSFPPQRYHYFLVLDFEATCDKPQIHPQEIIEFPILKLNGRTMEIESTFHMYVQPVVHPQLTPFCTELTGIIQAMVDGQPSLQQVLERVDEWMAKEGLLDPNVKSIFVTCGDWDLKVMLPGQCQYLGLPVADYFKQWINLKKAYSFAMGCWPKNGLLDMNKGLSLQHIGRPHSGIDDCKNIANIMKTLAYRGFIFKQTSKPF [ERI3]
// result 54.7

// query Provide melting temperature value for the following sequence: MDMKRRIHLELRNRTPAAVRELVLDNCKSNDGKIEGLTAEFVNLEFLSLINVGLISVSNLPKLPKLKKLELSENRIFGGLDMLAEKLPNLTHLNLSGNKLKDISTLEPLKKLECLKSLDLFNCEVTNLNDYRESVFKLLPQLTYLDGYDREDQEAPDSDAEVDGVDEEEEDEEGEDEEDEDDEDGEEEEFDEEDDEDEDVEGDEDDDEVSEEEEEFGLDEEDEDEDEDEEEEEGGKGEKRKRETDDEGEDD [ANP32B]
// result 53.3
